# experiment.description: Selectivity ratio of IC50 for african green monkey Vero cells to IC50 for […] Plasmodium falciparum FcB1/ Columbia
# Format: ADME, cell-based
# condition.context: read-out: Ratio IC50
property.measured: selectivity ratio

Summary for this compound, COc1cc2c(ccc3c4cc(OC)c(OC)cc4c[n+](C)c23)cc1O.[I-] [FAGARONINE IODIDE] : selectivity ratio is > 1400

meta.source: ChEMBL document CHEMBL2057190
